Entries and their MIC
# Test system: Candida albicans CCH 442
# assay: MIC by agar dilution method
# Type: cell-based
# details: CCH442; Table 6c, 3rd value column (head printed II); III Candida albicans CCH 442; agar dilution; read-out: MIC II
Give just the numeric value; µg/mL need not be written.

- smiles: "CCCCC/C=C/C=C/[C@@H](O)C/C=C/C=C/C(=O)O[C@@H]1[C@@H](O)[C@H](c2c(O)cc(O)cc2CO)O[C@H](CO)[C@H]1O[C@@H]1O[C@H](COC(=O)c2cccc(-c3ccc(-c4ccccc4)cc3)c2)[C@H](O)[C@H](O)[C@H]1O[C@@H]1O[C@H](CO)[C@H](O)[C@H](O)[C@H]1O"
  MIC [µg/mL]: 6.25

# evaluate next
INPUT: Report MIC for CCCCC/C=C/C=C/C(=O)OC[C@H]1O[C@@H](O[C@H]2[C@H](OC(=O)/C=C/C=C/C[C@H](O)/C=C/C=C/CCCCC)[C@@H](O)[C@H](c3c(O)cc(O)cc3CO)O[C@@H]2CO)[C@H](O[C@@H]2O[C@H](CO)[C@H](O)[C@H](O)[C@H]2O)[C@@H](O)[C@H]1O please.
OUTPUT: 1.56

Reference source: patent US5773421A
